Molecular target: F508del (Homo sapiens, UniProt P13569, DEL508-508)
Construct: expressed in transfected cells
Sequence (P13569 with tags, fused parts or gaps DEL508-508): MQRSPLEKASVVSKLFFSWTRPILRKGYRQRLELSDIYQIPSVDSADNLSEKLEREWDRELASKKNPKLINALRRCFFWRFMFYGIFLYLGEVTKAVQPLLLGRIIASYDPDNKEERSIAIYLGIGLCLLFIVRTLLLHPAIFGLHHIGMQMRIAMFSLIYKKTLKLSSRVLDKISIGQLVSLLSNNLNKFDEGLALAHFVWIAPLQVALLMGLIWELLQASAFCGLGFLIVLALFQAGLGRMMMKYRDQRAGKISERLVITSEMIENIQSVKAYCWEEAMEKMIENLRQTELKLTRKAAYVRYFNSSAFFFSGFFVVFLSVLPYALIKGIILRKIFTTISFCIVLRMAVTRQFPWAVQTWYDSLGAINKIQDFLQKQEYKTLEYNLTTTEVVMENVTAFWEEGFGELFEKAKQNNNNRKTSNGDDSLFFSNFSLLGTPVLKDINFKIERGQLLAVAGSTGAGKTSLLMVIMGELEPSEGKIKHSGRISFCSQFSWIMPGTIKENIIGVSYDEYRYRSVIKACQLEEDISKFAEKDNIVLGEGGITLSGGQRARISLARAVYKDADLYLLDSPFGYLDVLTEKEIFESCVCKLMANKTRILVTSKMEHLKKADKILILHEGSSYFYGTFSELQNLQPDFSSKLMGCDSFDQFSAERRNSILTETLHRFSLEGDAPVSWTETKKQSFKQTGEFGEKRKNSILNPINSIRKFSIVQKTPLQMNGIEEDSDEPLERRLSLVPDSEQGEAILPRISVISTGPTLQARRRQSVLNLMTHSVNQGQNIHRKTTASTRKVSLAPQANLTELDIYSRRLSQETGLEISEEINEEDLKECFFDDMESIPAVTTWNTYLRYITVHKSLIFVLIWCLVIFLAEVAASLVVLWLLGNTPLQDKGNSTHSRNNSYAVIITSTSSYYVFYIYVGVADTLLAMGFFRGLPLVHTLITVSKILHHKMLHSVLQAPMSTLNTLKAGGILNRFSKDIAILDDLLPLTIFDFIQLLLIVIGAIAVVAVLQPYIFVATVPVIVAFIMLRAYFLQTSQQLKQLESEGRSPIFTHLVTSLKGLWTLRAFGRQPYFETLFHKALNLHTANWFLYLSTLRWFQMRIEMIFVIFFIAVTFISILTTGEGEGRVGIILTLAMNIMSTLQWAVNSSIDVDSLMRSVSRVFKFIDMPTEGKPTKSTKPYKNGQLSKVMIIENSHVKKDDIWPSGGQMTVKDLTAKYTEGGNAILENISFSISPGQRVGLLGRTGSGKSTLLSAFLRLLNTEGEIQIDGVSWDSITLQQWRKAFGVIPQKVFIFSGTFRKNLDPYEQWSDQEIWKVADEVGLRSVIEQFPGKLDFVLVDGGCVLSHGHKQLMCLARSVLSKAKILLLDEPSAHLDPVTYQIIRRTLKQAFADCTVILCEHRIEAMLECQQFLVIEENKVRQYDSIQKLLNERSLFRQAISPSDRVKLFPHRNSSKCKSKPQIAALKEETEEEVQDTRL
Test: Protocol 2: FRET membrane potential optical assay (VIPR), identification of correction compounds
Type: cell-based
Conditions: F508del CFTR modulator activity; compounds of Table 1; read-out: EC30
reported.endpoint: EC30

| compound | EC30 |
| --- | --- |
| CC(C)COc1cc(F)cc(-c2ccc(C(=O)NS(=O)(=O)C3CCNC3)c(N3C[C@@H](C)CC3(C)C)n2)c1 (stereo partly shown) | < 3000 nM |
| COc1cc(-c2ccc(C(=O)NS(=O)(=O)c3ccc[nH]c3=O)c(N3C[C@@H](C)CC3(C)C)n2)ccc1C | < 3000 nM |
| CC1CN(c2ncccc2C(=O)NS(=O)(=O)c2cccc(NC3CCN(Cc4ccccc4)C3)n2)C(C)(C)C1 (stereo not shown) | 3000 to 10000 nM |
| CCOc1ccc(-c2cnc(N3CC(C)CC3(C)C)c(C(=O)NS(=O)(=O)c3cccc(N)n3)c2)cn1 (stereo not shown) | < 3000 nM |
| COc1cccc(F)c1-c1ccc(C(=O)NS(=O)(=O)c2ccc[nH]c2=O)c(N2C[C@@H](C)CC2(C)C)n1 | 3000 to 10000 nM |
| COC(=O)C1CCN(c2cccc(S(=O)(=O)NC(=O)c3cccnc3N3CC(C)CC3(C)C)n2)CC1 (stereo not shown) | 3000 to 10000 nM |

Q) Which EC30 reading was recorded for the compound CC(C)Oc1cccc(-c2ccc(C(=O)NS(=O)(=O)c3cccnc3N)c(N3C[C@@H](C)CC3(C)C)n2)c1 ?
A) < 3000 nM

====

EC30 by entry:
Target: F508del (Homo sapiens, UniProt P13569, DEL508-508)
Construct: expressed in transfected cells
Assay: Protocol 2: FRET membrane potential optical assay (VIPR), identification of correction compounds
Type: cell-based
Conditions: F508del CFTR modulator activity; compounds of Table 1; read-out: EC30

| molecule | target.system | EC30 |
| --- | --- | --- |
| C[C@@H]1CN(c2nc(-n3cc(OCC(C)(C)C)cn3)ccc2C(=O)NS(=O)(=O)c2cccc(N)n2)C(C)(C)C1 | F508del (Homo sapiens, UniProt P13569, DEL508-508) | < 3 µM |
| Cc1cc(-c2ccc(C(=O)NS(=O)(=O)N3CC[C@H](N)C3)c(N3C[C@@H](C)CC3(C)C)n2)ccc1F | F508del (Homo sapiens, UniProt P13569, DEL508-508) | 3 to 10 µM |
| C[C@@H]1CN(c2nc(-c3ccccc3O)ccc2C(=O)NS(=O)(=O)c2cccnc2N)C(C)(C)C1 | F508del (Homo sapiens, UniProt P13569, DEL508-508) | < 3 µM |
| C[C@@H]1CN(c2nc(OC3CCCC3)c(F)cc2C(=O)NS(=O)(=O)c2cccc(N)n2)C(C)(C)C1 | F508del (Homo sapiens, UniProt P13569, DEL508-508) | < 3 µM |
| Cc1cccc(-c2ccc(C(=O)NS(=O)(=O)c3cccc(N)n3)c(N3C[C@@H](C)CC3(C)C)n2)c1O | F508del (Homo sapiens, UniProt P13569, DEL508-508) | < 3 µM |

Q) Which EC30 reading was recorded for the molecule CCC1(C)CC(C)CN1c1nc(-c2cc(F)cc(OCC(C)C)c2)ccc1C(=O)NS(=O)(=O)c1cccc(N)n1 (single isomer, unassigned) ?
A) < 3 µM

Q) Which EC30 reading was recorded for the molecule CC1CN(c2ncccc2C(=O)NS(=O)(=O)c2cccc(N3CCC(Cc4ccccc4)C3)n2)C(C)(C)C1 (stereo not drawn) ?
A) < 3 µM

Q) Which EC30 reading was recorded for the molecule C[C@@H]1CN(c2nc(-c3ccc(F)cc3F)ccc2C(=O)NS(=O)(=O)c2cccnc2N)C(C)(C)C1 ?
A) < 3 µM

Q) Which EC30 reading was recorded for the molecule CC1CN(c2ncc(C3=CCN(C(=O)OC(C)(C)C)CC3)cc2C(=O)NS(=O)(=O)c2cccc(N)n2)C(C)(C)C1 (stereo not drawn) ?
A) < 3 µM

Q) Which EC30 reading was recorded for the molecule C[C@@H]1CN(c2nc(-c3ccc(C(F)(F)F)cc3)ccc2C(=O)NS(=O)(=O)c2cccnc2N)C(C)(C)C1 ?
A) < 3 µM

Q) Which EC30 reading was recorded for the molecule CC1CN(c2ncccc2C(=O)NS(=O)(=O)c2cccc(N3Cc4ccccc4C[C@H]3C(=O)O)n2)C(C)(C)C1 (stereo partly drawn) ?
A) 3 to 10 µM

Q) Which EC30 reading was recorded for the molecule COc1cccc(-c2ccc(C(=O)NS(=O)(=O)c3cccnc3N)c(N3C[C@@H](C)CC3(C)C)n2)c1O ?
A) 3 to 10 µM

Q) Which EC30 reading was recorded for the molecule C[C@@H]1CN(c2nc(C(C)(C)C)c(C(O)C(O)C3CCCCC3)cc2C(=O)NS(=O)(=O)c2cccc(N)n2)C(C)(C)C1 (stereo partly drawn) ?
A) < 3 µM

====

Molecular target: F508del (Homo sapiens, UniProt P13569, DEL508-508)
Construct: expressed in transfected cells
Experiment: Protocol 1: membrane potential optical assay (FLIPR III, voltage sensing dye), identification of potentiator compounds
Type: cell-based
Conditions: Table 3, compounds of Table 1
reported.endpoint: EC30

Consider the following illustrative entries.
| compound | readout.value |
| --- | --- |
| CC(C)COc1cc(F)cc(-c2ccc(C(=O)NS(=O)(=O)c3cccc(N)n3)c(N3C[C@@H]4CC[C@H]3C4)n2)c1 [Compound 1180] | +++ (“+++” means <3 uM) |
| CC(C)C(C)c1ccc(C(=O)NS(=O)(=O)c2cccc(N)n2)c(N2C[C@@H](C)CC2(C)C)n1 (some centres unmarked) [Compound 1489] | +++ (“+++” means <3 uM) |
| CCC1(C)CC(C)CN1c1nc(-c2cc(F)cc(OCC(C)C)c2)ccc1C(=O)NS(=O)(=O)c1cccc(N)n1 (single isomer, unassigned) [Compound 1729] | +++ (“+++” means <3 uM) |
| Cc1cc(C)c(Oc2nc(-c3cccc(OC(C)C)c3)ccc2C(=O)NS(=O)(=O)c2ccc[nH]c2=O)c(C)c1 [Compound 1188] | +++ (“+++” means <3 uM) |
| Cc1ccc(Oc2nc3c(cc2C(=O)NS(=O)(=O)c2nccnc2N)CCCC3(C)C)c(C)c1 [Compound 1239] | +++ (“+++” means <3 uM) |

Q) Which EC30 reading was recorded for the compound CC(C)COc1cc(F)cc(-c2ccc(C(=O)NS(=O)(=O)c3cccc(N)n3)c(C3=C[C@H](C)CC3(C)C)n2)c1 [Compound 1961] ?
A) +++ (“+++” means <3 uM)

Q) Which EC30 reading was recorded for the compound CC(C)COc1cc(F)cc(-c2ccc(C(=O)NS(=O)(=O)c3cccc(N)n3)c(N(CC3CC3)C(C)C)n2)c1 [Compound 1157] ?
A) +++ (“+++” means <3 uM)

Q) Which EC30 reading was recorded for the compound CC1CN(c2ncccc2C(=O)NS(=O)(=O)c2cccc(OCc3ccsc3)n2)C(C)(C)C1 (centres unmarked) [Compound 1992] ?
A) +++ (“+++” means <3 uM)

Q) Which EC30 reading was recorded for the compound CC(C)COc1cc(F)cc(-c2ccc(C(=O)NS(=O)(=O)c3ccccc3)c(N3C[C@@H](C)CC3(C)C)n2)c1 [Compound 1356] ?
A) +++ (“+++” means <3 uM)

Q) Which EC30 reading was recorded for the compound Cc1cc(C)c(Oc2nc(N3[C@H](C)CC[C@@H]3C)c(C)cc2C(=O)NS(=O)(=O)c2cccc(N)n2)c(C)c1 [Compound 1589] ?
A) +++ (“+++” means <3 uM)

====

EC30 by entry:
Biological target: F508del (Homo sapiens, UniProt P13569, DEL508-508)
Construct: expressed in transfected cells
Assay: Protocol 2: FRET membrane potential optical assay (VIPR), identification of correction compounds
Type: cell-based
Details: F508del CFTR modulator activity; compounds of Table 1; read-out: EC30

Consider the following illustrative entries.
| compound | readout.value |
| --- | --- |
| COc1cccc(CNc2cccc(S(=O)(=O)NC(=O)c3cccnc3N3CC(C)CC3(C)C)n2)c1 (centres unmarked) | < 3000 nM |
| CC1CN(c2ncccc2C(=O)NS(=O)(=O)c2cccc(Oc3ccc(N)cc3)n2)C(C)(C)C1 (centres unmarked) | 3000 to 10000 nM |

# input for lookup
Q) Which EC30 reading was recorded for the compound C[C@@H]1CN(c2nc(C3CCOC3)ccc2C(=O)NS(=O)(=O)c2ccccc2)C(C)(C)C1 (some centres unmarked) ?
A) < 3000 nM

====

Biological target: F508del (Homo sapiens, UniProt P13569, DEL508-508)
Construct: expressed in transfected cells
Assay: Protocol 2: FRET membrane potential optical assay (VIPR), identification of correction compounds
Type: cell-based
Details: Table 3; compounds of Table 1 as modulators of CFTR activity; protocol not stated

| chem.smiles | EC30 |
| --- | --- |
| CC(C)Oc1ccc(-c2ccc(C(=O)NS(=O)(=O)c3cccc(N)n3)c(N3CC[C@H](C)[C@H]3C)n2)cn1 | +++ (“+++” means <3 uM) |
| Cc1cc(C)c(Cn2c(C(=O)NS(=O)(=O)c3ccncc3)cc3c(Cl)cccc32)c(C)c1 | +++ (“+++” means <3 uM) |
| CCOc1ccc(F)c(-c2ccc(C(=O)NS(=O)(=O)c3cccc(N)n3)c(Oc3c(C)cc(C)cc3C)n2)c1 | +++ (“+++” means <3 uM) |
